Where do the numbers come from? From PubChem BioAssay AID1224921.

protocol: inhibitors of Clostridioides difficile proliferation – 4-point retest, confirmation (AID 1224921);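 also: plate controls were DMSO wells for no effect and levofloxacin 16 µg/mL wells for full effect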
applied_conditions: Clostridioides difficile clinical isolate growth, OD600, 24 h, active compounds read low; at 30 µM unless noted
Screen size: about 1,400 compounds; about 350 (25%) were called active. Not shown: some 2% with an inconclusive outcome. The list is a sample of the results. Entries with a potency or affinity are not part of this list.
property: max activity

Examples from the recorded data:
Lookup: Item C[C@H](C(=O)N(C)C[C@H]1OCc2ccccc2-c2ccccc2C(=O)N([C@@H](C)CO)C[C@H]1C)c1ccccc1 : provide max activity
Found: 18.3% (inactive)

Lookup: Item CCC(=O)Nc1ccc2c(c1)OC[C@@H](C)N(C(=O)CC)C[C@@H](C)[C@@H](OC)CN(C)C2=O : provide max activity
Found: 3.79% [at 0.5 µM] (inactive)

Lookup: Item C[C@@H](NC(=O)C[C@H]1C=C[C@H](NC(=O)C2CCC2)[C@@H](CO)O1)c1ccccc1 : provide max activity
Found: -13.6% [at 0.5 µM] (inactive)

Lookup: Item C[C@H]1CCCCO[C@@H](CN(C)C(=O)Nc2ccc(C(F)(F)F)cc2)[C@@H](C)CN([C@@H](C)CO)C(=O)c2cc(NS(=O)(=O)c3ccc(Cl)cc3)ccc2O1 : provide max activity
Found: 12.1% (inactive)

Next:
Lookup: Item CO[C@@H]1CN(C)C(=O)c2ccc(NC(=O)NC(C)C)cc2OC[C@@H](C)N(C(=O)NC(C)C)C[C@@H]1C : provide max activity
Found: 16.7% (inactive)

====

Below, each of the compounds is paired with its reported max activity value.
protocol: inhibitors of Clostridioides difficile proliferation – 4-point retest, confirmation (AID 1224921);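 also: plate controls were DMSO wells for no effect and levofloxacin 16 µg/mL wells for full effect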
applied_conditions: Clostridioides difficile clinical isolate growth, OD600, 24 h, active compounds read low; at 30 µM unless noted
Out of some 1,400 compounds screened, about 350 (25%) were called active. Another 2% or so got no clear call; they are omitted. Only a sample is shown. Entries with a potency or affinity are not part of this list.

Lookup: Item COc1cccc(C#Cc2ccc([C@@H]3[C@@H](C#N)N(C(=O)C4CCCCC4)[C@H]3CO)cc2)c1 : provide max activity
Found: 32.5% (inactive)

Lookup: Item C[C@H]1CN([C@@H](C)CO)S(=O)(=O)c2ccc(C#CC3CCCC3)cc2O[C@H]1CN(C)Cc1cccnc1 : provide max activity
Found: 23.6% (inactive)

Lookup: Item CO[C@H]1CN(C)C(=O)c2cc(NS(=O)(=O)c3cccc(F)c3)ccc2OC[C@@H](C)N(Cc2cc(F)ccc2F)C[C@H]1C : provide max activity
Found: -7.98% [at 1.95 µM] (inactive)

Lookup: Item CCC(=O)N[C@H]1C=C[C@@H](CC(=O)OC)O[C@@H]1CO : provide max activity
Found: -10.5% (inactive)

Lookup: Item C[C@H]1CN([C@@H](C)CO)C(=O)c2ccccc2-c2ccccc2CO[C@H]1CN(C)S(=O)(=O)c1ccsc1 : provide max activity
Found: -19.4% (inactive)

Lookup: Item O=C(Nc1ccc2c(c1)[C@H]1C[C@@H](CC(=O)N3CCc4ccccc4C3)O[C@@H](CO)[C@H]1O2)c1ccc2c(c1)OCO2 : provide max activity
Found: -27.9% [at 8 µM] (inactive)

Lookup: Item O=C(C[C@H]1C=C[C@H](NC(=O)c2ccncc2)[C@@H](CO)O1)Nc1ccc(-c2ccccc2)cc1 : provide max activity
Found: -5.7% [at 0.5 µM] (inactive)

Lookup: Item C[C@@H]1CN([C@@H](C)CO)C(=O)c2cc(NC(=O)Nc3ccc(C(F)(F)F)cc3)ccc2O[C@@H](C)CCCCO[C@H]1CN(C)C : provide max activity
Found: 31.7% [at 8 µM] (inactive)

Lookup: Item N#C[C@H]1[C@H](c2ccc(C#Cc3ccccc3F)cc2)[C@@H](CO)N1C(=O)C1CCCCC1 : provide max activity
Found: 15.2% [at 1.95 µM] (inactive)

Lookup: Item CC(C)CC#Cc1ccc2c(c1)O[C@H](CN(C)Cc1cccnc1)[C@@H](C)CN([C@@H](C)CO)S2(=O)=O : provide max activity
Found: 39.7% (inactive)

Lookup: Item C[C@@H]1CN([C@H](C)CO)S(=O)(=O)c2ccc(C3=CCCCC3)cc2O[C@H]1CN(C)Cc1cccnc1 : provide max activity
Found: 53.5% (inactive)

Lookup: Item C[C@@H]1CN([C@@H](C)CO)S(=O)(=O)c2ccc(C#CC3CCCC3)cc2O[C@H]1CN(C)Cc1cccnc1 : provide max activity
Found: 15.4% (inactive)

Lookup: Item COc1ccccc1C#Cc1ccc2c(c1)O[C@H](CN(C)Cc1ccncc1)[C@@H](C)CN([C@@H](C)CO)S2(=O)=O : provide max activity
Found: 48.6% (inactive)

Lookup: Item N#C[C@H]1[C@@H](c2ccc(C#Cc3ccccc3F)cc2)[C@@H](CO)N1C(=O)C1CCC1 : provide max activity
Found: -4.04% (inactive)

Lookup: Item C[C@H]1CN([C@@H](C)CO)C(=O)c2c(c3ccccc3n2C)-c2ccccc2CO[C@H]1CN(C)S(=O)(=O)CC(F)(F)F : provide max activity
Found: 14.7% (inactive)

Lookup: Item O=C(C[C@H]1C=C[C@@H](NC(=O)c2ccccn2)[C@H](CO)O1)NCc1cc(F)cc(F)c1 : provide max activity
Found: 7.65% (inactive)
